Attribution: ChEMBL document CHEMBL1961873

Biological target: Cyclin-dependent kinase 2 (Homo sapiens);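 note: mean inhibition of CDK2 in complex with cyclin E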
Conditions: at 0.1 µM
// values below are reported inhibition
endpoint: inhibition (%)

NC(=O)c1sc(-n2cnc3cc(C(F)(F)F)ccc32)cc1OCc1ccccc1Br; 0.99
COc1cccc(COc2cc(-n3cnc4ccccc43)sc2C(N)=O)c1; -0.91
Fc1ccc(-c2ncn(C3CCNCC3)c2-c2ccnc(Oc3ccccc3)n2)cc1; -2.35
COc1cccc(-n2ncc3c(N/N=C/c4ccncc4)ncnc32)c1; 24.6
NS(=O)(=O)c1ccc(-c2ccc3c(NC(=O)C4CC4)n[nH]c3c2)cc1; 2.18
CCn1c(-c2nonc2N)nc2c(C#CCN)ncc(OCCCN)c21; 2.03
NS(=O)(=O)c1ccc(N/C=C2\C(=O)Nc3ccc4ncsc4c32)cc1; 70.8
COc1cc2c(cc1Nc1nc(Nc3ccsc3C(N)=O)c3cc[nH]c3n1)N(C(=O)CN(C)C)CCC2; 0.86
Nc1nonc1-c1nc2cnccc2n1C1CCCCC1; 8.62
Cc1cc(-c2ccco2)cc(C)c1/C=C/c1cncc(-c2nn[nH]n2)c1; 0.38

----------
Molecular target: Mitogen-activated protein kinase kinase kinase kinase 4 (Homo sapiens) (UniProt O95819)
Sequence (O95819 2-1239 limits assumed): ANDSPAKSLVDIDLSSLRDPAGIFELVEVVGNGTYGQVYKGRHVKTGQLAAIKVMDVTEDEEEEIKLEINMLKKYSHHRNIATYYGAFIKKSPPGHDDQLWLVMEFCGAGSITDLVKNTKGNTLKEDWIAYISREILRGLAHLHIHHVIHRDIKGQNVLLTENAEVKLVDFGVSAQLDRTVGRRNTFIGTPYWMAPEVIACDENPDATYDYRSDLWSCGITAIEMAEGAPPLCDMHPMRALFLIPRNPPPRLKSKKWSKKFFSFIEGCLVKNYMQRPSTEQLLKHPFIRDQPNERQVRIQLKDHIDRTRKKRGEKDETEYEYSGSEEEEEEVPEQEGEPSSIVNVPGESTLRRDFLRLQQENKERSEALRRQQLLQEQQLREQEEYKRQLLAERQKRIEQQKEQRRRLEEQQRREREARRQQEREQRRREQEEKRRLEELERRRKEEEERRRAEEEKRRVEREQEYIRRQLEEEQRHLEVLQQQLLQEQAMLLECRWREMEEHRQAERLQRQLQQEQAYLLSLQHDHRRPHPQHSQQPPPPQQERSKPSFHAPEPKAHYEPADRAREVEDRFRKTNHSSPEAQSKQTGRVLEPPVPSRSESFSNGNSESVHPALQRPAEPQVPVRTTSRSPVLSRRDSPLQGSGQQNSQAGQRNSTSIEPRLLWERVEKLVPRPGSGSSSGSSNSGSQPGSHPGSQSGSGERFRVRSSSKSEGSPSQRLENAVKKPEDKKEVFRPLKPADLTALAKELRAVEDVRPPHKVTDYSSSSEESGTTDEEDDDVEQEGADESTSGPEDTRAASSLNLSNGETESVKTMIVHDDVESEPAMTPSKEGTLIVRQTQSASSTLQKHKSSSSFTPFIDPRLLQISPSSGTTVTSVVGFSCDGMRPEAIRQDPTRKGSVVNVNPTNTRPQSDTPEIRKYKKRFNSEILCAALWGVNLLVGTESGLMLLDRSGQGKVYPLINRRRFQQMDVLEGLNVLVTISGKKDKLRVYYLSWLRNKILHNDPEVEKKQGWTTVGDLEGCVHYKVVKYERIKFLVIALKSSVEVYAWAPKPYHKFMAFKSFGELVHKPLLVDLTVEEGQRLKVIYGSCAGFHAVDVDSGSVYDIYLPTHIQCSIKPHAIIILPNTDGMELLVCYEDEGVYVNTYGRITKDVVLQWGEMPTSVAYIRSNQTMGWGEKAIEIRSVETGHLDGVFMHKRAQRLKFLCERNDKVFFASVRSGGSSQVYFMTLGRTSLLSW
Details: at 0.1 µM
Description: GSK_PKIS: MAP4K4 mean inhibition at 0.1 uM [Nanosyn]
endpoint: inhibition (%)

COc1cccc(-n2ncc3c(N/N=C/c4ccncc4)ncnc32)c1; 20.1
COc1cc2c(cc1Nc1nc(Nc3ccsc3C(N)=O)c3cc[nH]c3n1)N(C(=O)CN(C)C)CCC2; 9.31
CCn1c(-c2nonc2N)nc2c(C#CC(C)(C)O)ncc(OCC3CCNCC3)c21; 4.98
NS(=O)(=O)c1ccc(N/C=C2\C(=O)Nc3ccc4ncsc4c32)cc1; 55.1
CCn1c(-c2nonc2N)nc2c(C#CCN)ncc(OCCCN)c21; 1.78
COc1cc(C=NNc2ncnc3c2cnn3Cc2ccccc2)ccc1O; -1.52
COc1cccc(COc2cc(-n3cnc4ccccc43)sc2C(N)=O)c1; 1.37

----------
Biological target: Mitogen-activated protein kinase 3 (Homo sapiens) (UniProt P27361);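 note: each value is a mean inhibition figure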
Conditions: at 0.1 µM
# maps each entry to its inhibition
endpoint: inhibition (%)

NS(=O)(=O)c1ccc(N/C=C2\C(=O)Nc3ccc4ncsc4c32)cc1; 5.66
COc1cccc(-n2ncc3c(N/N=C/c4ccncc4)ncnc32)c1; 4.96
CCn1c(-c2nonc2N)nc2c(C#CC(C)(C)O)nc(O[C@@H](CN)c3ccccc3)cc21; 0.9
NS(=O)(=O)c1ccc(-c2ccc3c(NC(=O)C4CC4)n[nH]c3c2)cc1; 1.44
Fc1ccc(-c2ncn(C3CCNCC3)c2-c2ccnc(Oc3ccccc3)n2)cc1; 2.44
COc1cc(C=NNc2ncnc3c2cnn3Cc2ccccc2)ccc1O; -2.79
COc1cc2c(cc1Nc1nc(Nc3ccsc3C(N)=O)c3cc[nH]c3n1)N(C(=O)CN(C)C)CCC2; 2.93
Nc1nonc1-c1nc2cnccc2n1C1CCCCC1; -0.87
COc1cccc(COc2cc(-n3cnc4ccccc43)sc2C(N)=O)c1; 2.69

----------
Target: Serine/threonine-protein kinase PAK 6 (Homo sapiens) (UniProt Q9NQU5);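 note: mean PAK6 inhibition reported from the GSK PKIS screen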
Sequence (Q9NQU5 whole entry, looked up): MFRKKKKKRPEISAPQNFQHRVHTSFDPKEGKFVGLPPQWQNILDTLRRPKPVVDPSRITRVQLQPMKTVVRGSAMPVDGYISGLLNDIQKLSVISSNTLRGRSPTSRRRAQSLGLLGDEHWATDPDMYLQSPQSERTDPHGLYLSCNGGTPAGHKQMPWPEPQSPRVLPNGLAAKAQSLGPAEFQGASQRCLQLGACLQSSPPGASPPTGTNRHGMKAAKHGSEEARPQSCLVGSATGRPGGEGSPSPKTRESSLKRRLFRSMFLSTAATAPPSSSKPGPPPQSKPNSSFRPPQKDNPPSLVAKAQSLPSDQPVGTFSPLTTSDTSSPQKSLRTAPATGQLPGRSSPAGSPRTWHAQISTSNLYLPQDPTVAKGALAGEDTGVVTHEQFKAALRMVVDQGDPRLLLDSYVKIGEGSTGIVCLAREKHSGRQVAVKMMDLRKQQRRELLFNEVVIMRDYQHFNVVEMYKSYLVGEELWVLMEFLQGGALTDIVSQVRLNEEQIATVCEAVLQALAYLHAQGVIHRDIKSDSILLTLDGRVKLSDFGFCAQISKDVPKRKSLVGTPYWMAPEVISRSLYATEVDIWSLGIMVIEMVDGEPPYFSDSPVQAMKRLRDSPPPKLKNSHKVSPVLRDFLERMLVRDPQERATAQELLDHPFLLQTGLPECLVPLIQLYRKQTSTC
Conditions: at 0.1 µM
endpoint: inhibition (%)

CCn1c(-c2nonc2N)nc2c(C#CC(C)(C)O)ncc(OC[C@@H]3CCCN3)c21; 19.1
COc1cccc(-n2ncc3c(N/N=C/c4ccncc4)ncnc32)c1; -2.81
Cc1cc(-c2ccco2)cc(C)c1/C=C/c1cncc(-c2nn[nH]n2)c1; 5.79
COc1cc(C=NNc2ncnc3c2cnn3Cc2ccccc2)ccc1O; -0.81
NS(=O)(=O)c1ccc(N/C=C2\C(=O)Nc3ccc4ncsc4c32)cc1; -9.73

----------
Molecular target: Serine/threonine-protein kinase B-raf (Homo sapiens) (UniProt P15056);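 note: reported value is the mean percent inhibition of BRAF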
Sequence (P15056 whole entry): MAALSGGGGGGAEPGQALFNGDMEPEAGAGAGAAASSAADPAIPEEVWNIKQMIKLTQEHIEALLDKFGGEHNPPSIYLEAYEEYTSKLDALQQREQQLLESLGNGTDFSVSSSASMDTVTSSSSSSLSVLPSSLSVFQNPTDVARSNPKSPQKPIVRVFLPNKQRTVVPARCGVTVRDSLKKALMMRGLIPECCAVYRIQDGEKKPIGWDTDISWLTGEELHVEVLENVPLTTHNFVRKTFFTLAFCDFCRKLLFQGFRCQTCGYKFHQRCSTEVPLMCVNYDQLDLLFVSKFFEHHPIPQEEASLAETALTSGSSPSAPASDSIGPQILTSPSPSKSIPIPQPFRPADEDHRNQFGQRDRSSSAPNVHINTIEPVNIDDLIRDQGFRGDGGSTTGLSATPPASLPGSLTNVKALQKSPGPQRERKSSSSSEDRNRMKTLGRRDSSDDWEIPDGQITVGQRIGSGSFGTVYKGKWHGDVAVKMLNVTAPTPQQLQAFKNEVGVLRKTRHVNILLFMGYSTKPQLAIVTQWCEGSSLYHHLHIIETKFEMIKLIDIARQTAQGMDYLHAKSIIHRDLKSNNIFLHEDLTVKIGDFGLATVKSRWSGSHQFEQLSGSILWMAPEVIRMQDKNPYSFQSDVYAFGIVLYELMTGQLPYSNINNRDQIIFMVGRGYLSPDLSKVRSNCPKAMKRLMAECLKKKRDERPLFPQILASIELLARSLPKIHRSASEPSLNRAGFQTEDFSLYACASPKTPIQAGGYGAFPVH
Conditions: at 1 µM
endpoint: inhibition (%)

Fc1ccc(-c2ncn(C3CCNCC3)c2-c2ccnc(Oc3ccccc3)n2)cc1; 4.3
COc1cccc(-n2ncc3c(N/N=C/c4ccncc4)ncnc32)c1; 21.5
Nc1nonc1-c1nc2cnccc2n1C1CCCCC1; 4.56
Cc1cc(-c2ccco2)cc(C)c1/C=C/c1cncc(-c2nn[nH]n2)c1; 1.61
CCn1c(-c2nonc2N)nc2c(C#CCN)ncc(OCCCN)c21; -4.6
CCn1c(-c2nonc2N)nc2c(C#CC(C)(C)O)ncc(OCC3CCNCC3)c21; 2.78
COc1cc(C=NNc2ncnc3c2cnn3Cc2ccccc2)ccc1O; -5.52
NS(=O)(=O)c1ccc(N/C=C2\C(=O)Nc3ccc4ncsc4c32)cc1; 41

----------
Target: Cyclin-dependent kinase 1 (Homo sapiens);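 note: mean percent inhibition of the CDK1/cyclin B complex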
Conditions: at 1 µM
endpoint: inhibition (%)

NS(=O)(=O)c1ccc(N/C=C2\C(=O)Nc3ccc4ncsc4c32)cc1; 62.4
CCn1c(-c2nonc2N)nc2c(C#CCN)ncc(OCCCN)c21; 2.18
CCn1c(-c2nonc2N)nc2c(C#CC(C)(C)O)nc(O[C@@H](CN)c3ccccc3)cc21; 4.92
Cc1cc(-c2ccco2)cc(C)c1/C=C/c1cncc(-c2nn[nH]n2)c1; 2.16
NS(=O)(=O)c1ccc(-c2ccc3c(NC(=O)C4CC4)n[nH]c3c2)cc1; 5.13
COc1cccc(-n2ncc3c(N/N=C/c4ccncc4)ncnc32)c1; 81.8
CCn1c(-c2nonc2N)nc2c(C#CC(C)(C)O)ncc(OC[C@@H]3CCCN3)c21; 0.58

----------
Molecular target: Sphingosine kinase 1 (Homo sapiens);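 note: mean percent inhibition of SPHK1 activity, measured within the GSK PKIS screening panel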
Conditions: at 0.1 µM
endpoint: inhibition (%)

CCn1c(-c2nonc2N)nc2c(C#CC(C)(C)O)ncc(OCC3CCNCC3)c21; 0
Fc1ccc(-c2ncn(C3CCNCC3)c2-c2ccnc(Oc3ccccc3)n2)cc1; 1.45
NS(=O)(=O)c1ccc(N/C=C2\C(=O)Nc3ccc4ncsc4c32)cc1; 0.04
COc1cc2c(cc1Nc1nc(Nc3ccsc3C(N)=O)c3cc[nH]c3n1)N(C(=O)CN(C)C)CCC2; 1.85
CCn1c(-c2nonc2N)nc2c(C#CC(C)(C)O)nc(O[C@@H](CN)c3ccccc3)cc21; -1.08
CCn1c(-c2nonc2N)nc2c(C#CCN)ncc(OCCCN)c21; 0.33
Cc1cc(-c2ccco2)cc(C)c1/C=C/c1cncc(-c2nn[nH]n2)c1; 0.73
COc1cc(C=NNc2ncnc3c2cnn3Cc2ccccc2)ccc1O; 3.3
CCn1c(-c2nonc2N)nc2c(C#CC(C)(C)O)ncc(OC[C@@H]3CCCN3)c21; -0.8
NC(=O)c1sc(-n2cnc3cc(C(F)(F)F)ccc32)cc1OCc1ccccc1Br; -0.24

----------
Test system: Mast/stem cell growth factor receptor Kit (Homo sapiens), P10721 [T670I]
Sequence (P10721 whole entry T670I): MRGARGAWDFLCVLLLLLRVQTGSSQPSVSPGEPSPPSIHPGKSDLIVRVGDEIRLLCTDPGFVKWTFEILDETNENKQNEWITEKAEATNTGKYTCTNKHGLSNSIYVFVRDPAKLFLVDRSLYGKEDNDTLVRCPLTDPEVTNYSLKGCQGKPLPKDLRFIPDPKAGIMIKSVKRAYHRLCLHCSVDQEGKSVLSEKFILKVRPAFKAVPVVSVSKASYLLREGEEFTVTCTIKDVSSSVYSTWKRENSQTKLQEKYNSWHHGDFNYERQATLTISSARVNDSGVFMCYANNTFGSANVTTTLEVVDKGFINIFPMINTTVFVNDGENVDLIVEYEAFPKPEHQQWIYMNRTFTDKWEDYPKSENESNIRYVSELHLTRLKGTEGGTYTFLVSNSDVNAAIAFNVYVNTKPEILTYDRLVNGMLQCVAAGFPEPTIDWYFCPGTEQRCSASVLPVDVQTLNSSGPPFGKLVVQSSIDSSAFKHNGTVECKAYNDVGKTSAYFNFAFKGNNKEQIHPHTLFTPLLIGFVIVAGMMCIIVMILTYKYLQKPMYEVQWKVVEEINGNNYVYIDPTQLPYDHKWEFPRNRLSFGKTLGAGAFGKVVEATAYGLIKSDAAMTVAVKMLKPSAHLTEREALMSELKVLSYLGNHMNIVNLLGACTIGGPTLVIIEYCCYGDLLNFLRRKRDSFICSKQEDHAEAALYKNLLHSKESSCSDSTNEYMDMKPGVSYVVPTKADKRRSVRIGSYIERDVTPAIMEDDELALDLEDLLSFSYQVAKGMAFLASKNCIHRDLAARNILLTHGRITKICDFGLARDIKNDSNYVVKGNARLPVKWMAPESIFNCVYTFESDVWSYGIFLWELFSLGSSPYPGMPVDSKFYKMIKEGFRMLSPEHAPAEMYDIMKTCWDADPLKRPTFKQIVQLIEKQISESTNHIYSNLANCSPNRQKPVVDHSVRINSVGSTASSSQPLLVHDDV
Details: at 1 µM
endpoint: inhibition

NC(=O)c1sc(-n2cnc3cc(C(F)(F)F)ccc32)cc1OCc1ccccc1Br; 0.92%
Cc1cc(-c2ccco2)cc(C)c1/C=C/c1cncc(-c2nn[nH]n2)c1; 0.51%
Nc1nonc1-c1nc2cnccc2n1C1CCCCC1; 13.3%
COc1cccc(-n2ncc3c(N/N=C/c4ccncc4)ncnc32)c1; 46.9%
NS(=O)(=O)c1ccc(-c2ccc3c(NC(=O)C4CC4)n[nH]c3c2)cc1; 4.13%
CCn1c(-c2nonc2N)nc2c(C#CC(C)(C)O)nc(O[C@@H](CN)c3ccccc3)cc21; 10.4%

----------
Biological target: Protein-tyrosine kinase 2-beta (Homo sapiens) (UniProt Q14289);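 note: reported as mean percent inhibition of PYK2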
Sequence (Q14289 whole entry, looked up): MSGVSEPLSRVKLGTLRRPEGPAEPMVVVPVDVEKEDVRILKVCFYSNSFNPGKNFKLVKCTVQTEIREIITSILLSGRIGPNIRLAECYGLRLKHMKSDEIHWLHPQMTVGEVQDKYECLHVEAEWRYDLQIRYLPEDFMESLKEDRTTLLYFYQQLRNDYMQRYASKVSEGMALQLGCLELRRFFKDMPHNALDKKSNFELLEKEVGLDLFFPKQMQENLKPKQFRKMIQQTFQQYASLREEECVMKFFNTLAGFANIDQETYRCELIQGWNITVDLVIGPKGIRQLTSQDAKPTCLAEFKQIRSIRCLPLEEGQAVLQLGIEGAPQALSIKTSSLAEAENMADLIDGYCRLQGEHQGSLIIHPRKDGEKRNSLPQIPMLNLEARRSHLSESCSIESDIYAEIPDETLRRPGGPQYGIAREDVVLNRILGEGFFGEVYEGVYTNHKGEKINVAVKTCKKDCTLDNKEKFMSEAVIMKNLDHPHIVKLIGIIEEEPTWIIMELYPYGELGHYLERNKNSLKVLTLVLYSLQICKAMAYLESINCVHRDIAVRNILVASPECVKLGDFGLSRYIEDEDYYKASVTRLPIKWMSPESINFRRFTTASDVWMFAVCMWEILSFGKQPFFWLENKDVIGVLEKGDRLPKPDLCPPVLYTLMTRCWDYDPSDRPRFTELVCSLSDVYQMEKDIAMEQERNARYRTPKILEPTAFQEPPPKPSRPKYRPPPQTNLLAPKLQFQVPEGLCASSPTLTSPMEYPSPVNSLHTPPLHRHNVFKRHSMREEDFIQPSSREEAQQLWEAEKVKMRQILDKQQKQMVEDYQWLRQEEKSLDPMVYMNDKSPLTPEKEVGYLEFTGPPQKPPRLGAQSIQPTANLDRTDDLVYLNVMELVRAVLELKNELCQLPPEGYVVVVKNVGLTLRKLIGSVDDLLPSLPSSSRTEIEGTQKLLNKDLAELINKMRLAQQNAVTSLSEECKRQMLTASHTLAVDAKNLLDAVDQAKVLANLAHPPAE
Conditions: at 0.1 µM
endpoint: inhibition

COc1cccc(-n2ncc3c(N/N=C/c4ccncc4)ncnc32)c1; 11.5%
NC(=O)c1sc(-n2cnc3cc(C(F)(F)F)ccc32)cc1OCc1ccccc1Br; 3.52%
NS(=O)(=O)c1ccc(N/C=C2\C(=O)Nc3ccc4ncsc4c32)cc1; 7.28%
Cc1cc(-c2ccco2)cc(C)c1/C=C/c1cncc(-c2nn[nH]n2)c1; 1.24%
CCn1c(-c2nonc2N)nc2c(C#CC(C)(C)O)ncc(OCC3CCNCC3)c21; 9.34%
CCn1c(-c2nonc2N)nc2c(C#CC(C)(C)O)ncc(OC[C@@H]3CCCN3)c21; 1.89%
CCn1c(-c2nonc2N)nc2c(C#CCN)ncc(OCCCN)c21; -5.89%
Nc1nonc1-c1nc2cnccc2n1C1CCCCC1; -7.07%
COc1cc(C=NNc2ncnc3c2cnn3Cc2ccccc2)ccc1O; -6.73%

----------
Molecular target: Serine/threonine-protein kinase 4 (Homo sapiens);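 note: mean inhibition of MST1, part of the GSK PKIS dataset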
Details: at 1 µM
Reported inhibition values follow for various compounds
endpoint: inhibition (%)

CCn1c(-c2nonc2N)nc2c(C#CC(C)(C)O)nc(O[C@@H](CN)c3ccccc3)cc21; 15.9
COc1cc(C=NNc2ncnc3c2cnn3Cc2ccccc2)ccc1O; -2.3
COc1cc2c(cc1Nc1nc(Nc3ccsc3C(N)=O)c3cc[nH]c3n1)N(C(=O)CN(C)C)CCC2; 8.27
Fc1ccc(-c2ncn(C3CCNCC3)c2-c2ccnc(Oc3ccccc3)n2)cc1; 1.85
CCn1c(-c2nonc2N)nc2c(C#CC(C)(C)O)ncc(OC[C@@H]3CCCN3)c21; 2.14
NS(=O)(=O)c1ccc(-c2ccc3c(NC(=O)C4CC4)n[nH]c3c2)cc1; 5.91
Nc1nonc1-c1nc2cnccc2n1C1CCCCC1; 18.5
NC(=O)c1sc(-n2cnc3cc(C(F)(F)F)ccc32)cc1OCc1ccccc1Br; 2.83
NS(=O)(=O)c1ccc(N/C=C2\C(=O)Nc3ccc4ncsc4c32)cc1; 75.2
Cc1cc(-c2ccco2)cc(C)c1/C=C/c1cncc(-c2nn[nH]n2)c1; 0.16
CCn1c(-c2nonc2N)nc2c(C#CCN)ncc(OCCCN)c21; 5.35
